Hey, just so you know, these numbers are from ChEMBL document CHEMBL4834420.

# PROTOCOL_DESCRIPTION: Plasma clearance in Wistar Han rat at 0.05 mg/kg, iv or 1 mg/kg, po
# Format: ADME, organism-based
Documented clearance across a set of compounds
Numeric answer only, unit mL/min/kg assumed.

# get_value(readout='clearance', item= CCn1c(-c2cnc(C)nc2)nc2c(O[C@H]3CCN(C(=O)C4CCOC4)C3)ncnc21 (stereo partly drawn) )
6.2

Recorded clearance for CCn1c(-c2cnc(C)nc2)nc2c(O[C@H]3CCN(C(=O)C4CCC4)C3)ncnc21 , please?
28

Quick one: clearance of CCn1c(-c2cnc(C)nc2)nc2c(N[C@H]3CCN(C(=O)c4cocn4)C3)ncnc21 ?
13

// query clearance value for entry CCn1c(-c2cnc(C)nc2)nc2c(N[C@H]3CCN(C(=O)C4CCOC4)C3)ncnc21 (stereo partly drawn)
18

# query: clearance of entry CCn1c(-c2cnc(C)nc2)nc2c(O[C@H]3CCN(C(=O)C4CC(F)(F)C4)C3)ncnc21
6

Which clearance is reported for this compound? CCC(=O)N1CC[C@H](Oc2ncnc3c2nc(-c2cnc(C)nc2)n3CC)C1
12

Look up clearance for this compound: CCn1c(-c2cnc(C)nc2)nc2c(N[C@H]3CCN(C(=O)C4CC(F)(F)C4)C3)ncnc21
26

Reported clearance for CCn1c(-c2ccc(C(F)(F)F)nc2)nc2c(O[C@H]3CCN(C(=O)C4CC4)C3)ncnc21 : what is it?
15

====

# PROTOCOL_DESCRIPTION: Protein binding in Wistar Han rat plasma
# Type: ADME, cell-free
# CONDITION_CONTEXT: read-out: PPB (converted)
VALUE_TYPE: fraction unbound
Give a plain numeric answer without units written out.

Which value of fraction unbound has been reported for CCn1c(-c2cnc(C)nc2)nc2c(N[C@H]3CCN(C(=O)C4CC4)C3)ncnc21 in the records?
0.18

====

# Tested on: P-gp (MDR1)
# PROTOCOL_DESCRIPTION: Efflux ratio of apparent permeability from basolateral to apical side over apical to basolateral side in dog MDCK2 cells expressing MDR1 PGP
# Format: ADME, cell-based, Canis lupus familiaris, MDCKII-MDR1
# CONDITION_CONTEXT: MDCK-MDR1
VALUE_TYPE: efflux ratio

If you can, please state the reported efflux ratio value of CCn1c(-c2cnc(C)nc2)nc2c(N[C@H]3CCN(C(=O)C4CC4)C3)ncnc21 .
16

====

# PROTOCOL_DESCRIPTION: Intrinsic clearance in human hepatocytes
# Type: ADME, cell-based, Hepatocyte
VALUE_TYPE: CLint scaled

// returns reported CLint scaled for input CCn1c(-c2cnc(C)nc2)nc2c(N[C@H]3CCN(C(=O)C4CC4)C3)ncnc21
< 2 mL/min/kg

====

# PROTOCOL_DESCRIPTION: Inhibition of adenosine transporter in human HeLa cells assessed as reduction in [3H]adenosine uptake preincubated for 30 mins followed by [3H]adenosine addition and measured after 60 mins
# Type: cell-based
VALUE_TYPE: pIC50
Bear in mind: pIC50 is minus log10 of a mol/L concentration; give just that figure.

Known results for compounds:
Tell me the measured pIC50 of CCn1c(-c2ccc(C(F)(F)F)nc2)nc2c(O[C@H]3CCN(C(=O)C4CC4)C3)ncnc21 , please.
5.25

Name the recorded pIC50 for CCn1c(-c2ccc(C(F)(F)F)nc2)nc2c(O[C@H]3CCN(C(=O)c4cocn4)C3)ncnc21 .
5.36

Which value of pIC50 has been reported for CCC(=O)N1CC[C@H](Nc2ncnc3[nH]c(-c4cnn(CC)c4C)nc23)C1 in the records?
5.27

More entries:
Entry CCn1c(-c2ccc(C(F)(F)F)nc2)nc2c(O[C@H]3CCN(C(=O)N4CC(OC)C4)C3)ncnc21 : reported pIC50 = ?
5.66

Look up pIC50 for this compound: CCn1c(-c2cnc(C)nc2)nc2c(O[C@H]3CCN(C(=O)C4CC4)C3)ncnc21
5.28

Request the reported pIC50 associated with CCn1c(-c2cnc(C)nc2)nc2c(N[C@H]3CCN(C(=O)C4CCOCC4)C3)ncnc21
5.05

Request the reported pIC50 associated with CCC(=O)N1CC[C@H](Nc2ncnc3c2nc(-c2ccc(C(F)(F)F)nc2)n3C)C1
6.15

Reported pIC50 for CCC(=O)N1CC[C@H](Nc2ncnc3c2nc(-c2cnc(C)nc2)n3C)C1 : what is it?
5.70

Fill in: pIC50 of CCn1c(-c2ccc(C(F)(F)F)nc2)nc2c(O[C@H]3CCN(C(=O)C4CCOC4)C3)ncnc21 (some centres undefined) is ___
5.49

Any idea what its pIC50 is? The compound is CCC(=O)N1CC[C@H](Nc2ncnc3c2nc(-c2cnn(CC)c2C)n3CC(F)(F)F)C1
5.03

Query (compound): CCC(=O)N1CC[C@H](Nc2ncnc3c2nc(-c2ccc(C)nc2)n3C)C1 ; field requested: pIC50
5.42

Quick check: pIC50 of CCC(=O)N1CC[C@H](Nc2ncnc3c2nc(-c2cnc(OC)c(F)c2)n3C)C1 ?
5.89

Recorded pIC50 for CCn1c(-c2ccc(C(F)(F)F)nc2)nc2c(N[C@H]3CCN(C(=O)C4CC4)C3)ncnc21 , please?
5.92

Could you share which pIC50 value was measured for CCC(=O)N1CC[C@H](Nc2ncnc3c2nc(-c2cnn(CC)c2C)n3C)C1 ?
5.14

Look up pIC50: CCC(=O)N1CC[C@H](Nc2ncnc3c2nc(-c2ccc(OC)nc2)n3C)C1
5.72

====

Each record here notes measured Vd.
# PROTOCOL_DESCRIPTION: Volume of distribution in Beagle dog
# Type: ADME, Canis lupus familiaris
# CONDITION_CONTEXT: in vivo
# value in L/kg; strip the unit string

So what's the measured Vd for this one? CCC(=O)N1CC[C@H](Oc2ncnc3c2nc(-c2cnc(C)nc2)n3CC)C1
1.9

***
Consider the compound shown here: CCn1c(-c2ccc(C(F)(F)F)nc2)nc2c(O[C@H]3CCN(C(=O)N4CC(OC)C4)C3)ncnc21 What is its recorded Vd?
0.7

Which Vd value belongs to CCn1c(-c2ccc(C(F)(F)F)nc2)nc2c(O[C@H]3CCN(C(=O)c4cocn4)C3)ncnc21 ?
1.2

Which Vd is listed for CCn1c(-c2cnc(C)nc2)nc2c(O[C@H]3CCN(C(=O)C4CCOC4)C3)ncnc21 (stereo partly specified) ?
0.7

Record request: Vd value, item CCn1c(-c2cnc(C)nc2)nc2c(O[C@H]3CCN(C(=O)C4CCC4)C3)ncnc21
1

Give the measured Vd of CCn1c(-c2cnc(C)nc2)nc2c(O[C@H]3CCN(C(=O)C4CC4)C3)ncnc21 .
0.6

====

Listed below: IC50 values for each entry.
# TESTED_TARGET: Phosphatidylinositol 4,5-bisphosphate 3-kinase catalytic subunit delta isoform (Homo sapiens, UniProt O00329)
# Sequence (O00329 whole entry, canonical isoform): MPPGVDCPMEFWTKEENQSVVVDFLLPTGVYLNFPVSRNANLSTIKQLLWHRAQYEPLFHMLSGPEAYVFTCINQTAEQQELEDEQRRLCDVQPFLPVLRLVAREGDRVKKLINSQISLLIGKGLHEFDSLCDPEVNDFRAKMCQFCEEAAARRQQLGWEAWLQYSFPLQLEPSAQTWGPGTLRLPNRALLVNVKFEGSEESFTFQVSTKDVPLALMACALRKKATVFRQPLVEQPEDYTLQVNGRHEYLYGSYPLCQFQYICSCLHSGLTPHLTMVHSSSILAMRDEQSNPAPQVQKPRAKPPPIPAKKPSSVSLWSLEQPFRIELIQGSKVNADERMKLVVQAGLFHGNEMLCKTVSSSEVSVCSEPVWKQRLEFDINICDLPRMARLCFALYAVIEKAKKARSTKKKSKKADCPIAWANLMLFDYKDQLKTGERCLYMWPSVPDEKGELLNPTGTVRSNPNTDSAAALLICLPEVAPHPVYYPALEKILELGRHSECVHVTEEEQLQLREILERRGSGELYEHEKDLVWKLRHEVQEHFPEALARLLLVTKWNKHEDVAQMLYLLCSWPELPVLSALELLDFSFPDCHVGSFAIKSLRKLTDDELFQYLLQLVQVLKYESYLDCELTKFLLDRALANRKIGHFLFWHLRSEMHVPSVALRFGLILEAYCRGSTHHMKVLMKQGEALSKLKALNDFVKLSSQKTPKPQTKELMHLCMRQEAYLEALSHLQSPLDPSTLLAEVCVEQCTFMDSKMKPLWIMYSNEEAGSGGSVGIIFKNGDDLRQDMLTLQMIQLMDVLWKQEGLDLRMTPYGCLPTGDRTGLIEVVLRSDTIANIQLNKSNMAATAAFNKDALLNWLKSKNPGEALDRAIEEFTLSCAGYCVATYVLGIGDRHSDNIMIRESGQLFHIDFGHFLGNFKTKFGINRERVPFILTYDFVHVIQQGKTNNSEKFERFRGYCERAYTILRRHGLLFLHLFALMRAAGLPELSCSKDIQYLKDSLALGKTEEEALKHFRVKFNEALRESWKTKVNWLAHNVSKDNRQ
# PROTOCOL_DESCRIPTION: Inhibition of PI3Kdelta in human Ramos cells assessed as reduction in anti-IgM-antibody-induced phosphorylation of AKT at Ser473 residue preincubated for 20 mins followed by anti-IgM antibody stimulation and measured after 30 mins by alphascreen assay
# Type: cell-based
Just so you know, I need the unit written after the number.

Here is how some compounds turned out for IC50.
# lookup: IC50 of CCn1c(-c2ccc(C(F)(F)F)nc2)nc2c(O[C@H]3CCN(C(=O)[C@H]4C[C@@H](OC)C4)C3)ncnc21
67 nM

Please report the recorded IC50 for CCn1c(-c2cnc(C)nc2)nc2c(O[C@H]3CCN(C(=O)N4CC(OC)C4)C3)ncnc21 .
63 nM

Param item = CCC(=O)N1CC[C@H](Nc2ncnc3c2nc(-c2cnc(OC)c(F)c2)n3C)C1 ; retrieve measured IC50.
20 nM

Endpoint output: IC50 of CCn1c(-c2cnc(C)nc2)nc2c(N[C@H]3CCN(C(=O)c4cocn4)C3)ncnc21 . Value?
82 nM

Reported IC50 for CCCn1c(-c2cnc(C)nc2)nc2c(N[C@H]3CCN(C(=O)CC)C3)ncnc21 : what is it?
455 nM

Quick one: IC50 for CCn1c(-c2cnc(C)nc2)nc2c(O[C@H]3CCN(C(=O)C4CCOCC4)C3)ncnc21 ?
390 nM

Reported IC50, compound CCC(=O)N1CC[C@H](Nc2ncnc3c2nc(-c2ccn(CC)c2C)n3C)C1 : ____
125 nM

// query IC50 value for entry CCC(=O)N1CC[C@H](Nc2ncnc3c2nc(-c2cnc(OC)c(C)c2)n3C)C1
6 nM

// returns reported IC50 for input CCn1c(-c2cnc(C)nc2)nc2c(N[C@H]3CCN(C(=O)C4CC(F)(F)C4)C3)ncnc21
13 nM

Endpoint output: IC50 of CCn1c(-c2cnc(C)nc2)nc2c(O[C@H]3CCN(C(=O)C4CCC4)C3)ncnc21 . Value?
14 nM

***
Endpoint output: IC50 of CCC(=O)N1CC[C@H](Nc2ncnc3c2nc(-c2cnn(CC)c2C)n3CC2CC2)C1 . Value?
1350 nM

Would you mind telling me what IC50 value was observed for CCn1c(-c2cnc(C)nc2)nc2c(N[C@H]3CCN(C(=O)C4CC4)C3)ncnc21 ?
20 nM

Which measured IC50 value corresponds to CCC(=O)N1CC[C@H](Nc2ncnc3c2nc(-c2cnc(C)nc2)n3C)C1 ?
71 nM

Reported IC50, compound CCn1c(-c2ccc(C(F)(F)F)nc2)nc2c(O[C@H]3CCN(C(=O)C4CC4)C3)ncnc21 : ____
49 nM

I have this compound here, CCn1c(-c2cnc(C)nc2)nc2c(O[C@H]3CCN(C(=O)[C@H]4C[C@@H](OC)C4)C3)ncnc21 , and I need its recorded IC50.
110 nM

Find the recorded IC50 belonging to CCCn1c(-c2cnn(CC)c2C)nc2c(N[C@H]3CCN(C(=O)CC)C3)ncnc21 and report it.
198 nM

Which IC50 value belongs to CCC(=O)N1CC[C@H](Nc2ncnc3c2nc(-c2cnn(CC)c2C)n3C2CC2)C1 ?
720 nM

What does the data say about its IC50? Entry: CCC(=O)N1CC[C@H](Nc2ncnc3c2nc(-c2cnn(CC)c2C)n3CC(F)F)C1
14 nM

Fill blank: measured IC50 of the compound CCC(=O)N1CC[C@H](Nc2ncnc3c2nc(-c2ccc(OC)nc2)n3C)C1 is ____.
67 nM
